These entries and their values trace back to PubChem BioAssay AID588487.

- Assayed system: UniProt Q9Y2J8
- Sequence (Q9Y2J8 whole entry, looked up): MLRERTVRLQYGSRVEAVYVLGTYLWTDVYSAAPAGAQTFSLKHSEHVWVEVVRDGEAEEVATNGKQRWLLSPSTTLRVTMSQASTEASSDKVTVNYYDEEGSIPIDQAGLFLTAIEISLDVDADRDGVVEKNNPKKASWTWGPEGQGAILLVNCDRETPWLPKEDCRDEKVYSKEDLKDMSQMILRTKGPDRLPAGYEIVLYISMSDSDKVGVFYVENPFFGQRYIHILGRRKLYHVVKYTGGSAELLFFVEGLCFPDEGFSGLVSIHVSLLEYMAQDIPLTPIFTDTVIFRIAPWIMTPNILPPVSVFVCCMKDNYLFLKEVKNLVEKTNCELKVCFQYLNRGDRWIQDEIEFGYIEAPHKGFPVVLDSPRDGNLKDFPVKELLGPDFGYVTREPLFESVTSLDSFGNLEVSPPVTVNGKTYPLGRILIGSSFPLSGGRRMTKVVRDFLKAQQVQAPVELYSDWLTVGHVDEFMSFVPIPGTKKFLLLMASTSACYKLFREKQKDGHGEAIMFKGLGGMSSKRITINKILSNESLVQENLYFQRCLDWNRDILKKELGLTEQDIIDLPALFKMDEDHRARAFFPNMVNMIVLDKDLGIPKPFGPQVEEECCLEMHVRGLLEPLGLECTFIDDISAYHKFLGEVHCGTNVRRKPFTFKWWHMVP
- Experiment summary: PAD1-4 inhibition by competitive ABPP, late-stage follow-up, orthogonal assay for PAD4 inhibitor project, biochemical, fluorescence, gel-based ABPP, HTS hits (AID 588487)
- Measurement setup: recombinant PAD1-4, gel-based ABPP, RFA probe fluorescence; PAD2; at 10 µM; stronger effect = higher value
Give inhibition for every item shown.
State the answer as a number, implicitly in %.

Recorded result, CN(C)C(CNC(=O)c1cc2ccccc2o1)c1ccco1 (stereo not given) , inhibition: 46

inhibition in this record for CCOc1nc(Nc2ccc(OC)cc2OC)nc(OCC)n1 : 62

The recorded inhibition for entry Cc1cc(C)c(C)c(S(=O)(=O)N2CCC(C(=O)N3CCCC3)CC2)c1C equals -43

inhibition in this record for Cc1cc(C)c(C#N)c(Sc2ccccc2N)n1 : 38

Measured inhibition, Cc1nn(-c2cccc(Cl)c2)c2c1C(c1cccnc1)C(C#N)=C(N)O2 (stereo not given) : 28

Lab note: measured inhibition of Cn1c(N)c(C(=O)COC(=O)COc2ccc(Br)cc2)c(=O)n(C)c1=O was 51

// inhibition value for Cc1ccc(-c2nc3sc(C#N)c(N)n3c(=O)c2C#N)cc1 : 16

What the record says about CCC(=O)Oc1ccc(C(=O)Nc2cccc(C(=O)NC(C)(C)C)c2)cc1 : inhibition is 29

For this compound ( CCOC(=O)N1CCC(c2cc(=O)n(-c3ccccc3)[nH]2)CC1 ), measured inhibition is 14

The measured inhibition associated with COC(=O)c1cc(C)nc(Sc2ccccc2N)n1 reads 8

Record summary for Cc1cc(C)cc(NC(=S)/C(=C(\[O-])c2ccc(Cl)s2)[n+]2cccc(C)c2)c1 : reported inhibition = 50

inhibition reported for this compound CCOc1ccccc1C(=O)NCC(=O)NCCCc1ccccc1 : 26

The recorded inhibition for entry Cc1c(C(=O)N2CCCCC2)c(S(=O)(=O)N2CCN(c3ccc(Cl)cc3)CC2)c(C)n1C equals 6

Just so you know, measured inhibition for COc1cccc(NC(=O)CN(C)C(=O)C23CC4CC(CC(Cl)(C4)C2)C3)c1 came out at 17

// sample CCOc1c(Br)cc(/C=C2\C(=O)N(CCC#N)N=C2C)cc1OC , its inhibition was 25

Lookup result for Cn1c(SCC(=O)Nc2ccc(Br)cn2)nnc1C1CC1 ; measured inhibition: 19

Record summary for Cc1cc(-c2nnc(SCC(=O)Nc3ccc(F)c(F)c3)n2N)n[nH]1 : reported inhibition = 62

Query COc1cccc(/C=C2/CN(C)CC3=C2OC(N)=C(C#N)C3c2cccc(OC)c2)c1 (stereo not given) yields inhibition of 92

Measured inhibition, COc1ccc(-c2cc(=O)n(CCC#N)[nH]2)cc1 : 17

Looking up COc1cccc2cc(C(=O)NC3CC(C)(C)NC(C)(C)C3)c(=O)oc12 , I see its inhibition listed as 7

* * *

- Assayed system: Protein-arginine deiminase type-2 (Homo sapiens)
- Experiment summary: PAD1-4 inhibition by competitive ABPP, late-stage follow-up, orthogonal assay for PAD4 inhibitor project, biochemical, fluorescence, gel-based ABPP, HTS hits (AID 588487)
- Measurement setup: recombinant PAD1-4, gel-based ABPP, RFA probe fluorescence; PAD2; at 10 µM; stronger effect = higher value
The class of a record is decided solely by its measured inhibition; consult b0 (below 20%), b1 (20% to below 40%), b2 (40% or more)

Exercise: Band for CCNC(=S)NNC(=O)c1csc(C)c1 ?
Key: b0

Exercise: Would you mind sorting CCN(Cc1ccc2c(c1)OCCO2)C(=O)CSc1nc(C)nc2sc(C)c(C)c12 into the appropriate category?
Key: b1

Exercise: Pick a category. Item: O=C(COc1ccccc1F)N1CCN(S(=O)(=O)/C=C/c2ccccc2)CC1
Key: b1

Exercise: Could you tell me which band O=C(O)CCC(=O)c1ccc(-c2ccccc2)cc1 belongs to?
Key: b0

Exercise: Hello team, could you let me know which band the following compound falls into: COc1ccc(S(=O)(=O)Nc2ccccc2C)cc1
Key: b2

Exercise: Returns: class label. Input: Cc1ccc(CNC(=O)c2ccc(C)c(S(=O)(=O)N3CCCCC3)c2)cc1
Key: b2

Exercise: Into which category would you place COc1ccc(CCNC(=O)c2c[nH]c3ccc(F)cc3c2=O)cc1OC ?
Key: b1

Exercise: Kindly identify the class of S=C(NCc1ccco1)Nc1cccc(Cl)c1 .
Key: b1

Exercise: Band for COc1ccc(/C=C2/C(=O)N(c3ccccc3)N=C2C)cc1 ?
Key: b2

Exercise: Category of O=C(NC1CCCCC1)C(c1cccs1)N(CCCN1CCOCC1)C(=O)c1ccc(-c2ccccc2)[nH]1 (stereo unspecified) , please.
Key: b0

* * *

- Assayed system: Protein-arginine deiminase type-1 (Homo sapiens)
- Experiment summary: PAD1-4 inhibition by competitive ABPP, late-stage follow-up, orthogonal assay for PAD4 inhibitor project, biochemical, fluorescence, gel-based ABPP, HTS hits (AID 588487)
- Measurement setup: recombinant PAD1-4, gel-based ABPP, RFA probe fluorescence; PAD1; at 10 µM; stronger effect = higher value
Measured attribute: inhibition (%)
Please reply with the bare figure in % and do not write the unit itself.

Just so you know, measured inhibition for CN(C)CCCNc1cn[nH]c(=O)c1Cl came out at 33

For this compound ( COc1ccc(-c2cc(=O)[nH][nH]2)cc1 ), measured inhibition is 58

Value of inhibition reported for the compound COc1cccc(NC(=O)CN(C)C(=O)C23CC4CC(CC(Cl)(C4)C2)C3)c1 is 13

# compound COc1ccc(/C=N/Nc2nncn2N)cc1Br ; its inhibition = 30

Lab note: COc1ccc(C2=CC(c3ccc(OC)c(OC)c3)NC(=S)N2)cc1 (stereo unspecified) gave inhibition of 37

Input O=[N+]([O-])c1ccc2nc(-c3ccccc3)n(OCc3ccc(Cl)cc3)c2c1 . Output inhibition: 3

* * *

- Assayed system: Protein-arginine deiminase type-1 (Homo sapiens)
- Experiment summary: PAD1-4 inhibition by competitive ABPP, late-stage follow-up, orthogonal assay for PAD4 inhibitor project, biochemical, fluorescence, gel-based ABPP, HTS hits (AID 588487)
- Measurement setup: recombinant PAD1-4, gel-based ABPP, RFA probe fluorescence; PAD1; at 10 µM
Calls of active or inactive are those of the source.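 Rule for the calls: active = inhibition of at least 50% against any of four protein arginine deiminase enzymes; inactive = the rest.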
Assign a class; possible classes are True = active, False = inactive

Exercise: Outcome? Cc1cc(C)c(C#N)c(Sc2ccccc2N)n1
Key: False

Exercise: Could you please tell me the result logged for Cc1cc(N(C)NC(=S)Nc2ccccc2)nc(C)n1 in this assay?
Key: False

Exercise: # outcome recorded in this test, key = CC(NC(=O)Nc1ccc(O)cc1)(C(F)(F)F)C(F)(F)F
Key: False

Exercise: Hey, what did the test say about COc1cccc(C2=CC(c3ccc(OC)c(OC)c3)NC(=S)N2)c1 (centres undefined) ?
Key: False

Exercise: Hello, I am checking results. What call was entered for N#CCCN(C(=O)Cn1nc(C(=O)O)c2ccccc2c1=O)c1ccccc1 ?
Key: True

Exercise: Can you look up the reported call for S=C(NCc1ccco1)Nc1cccc(Cl)c1 for me?
Key: False

Exercise: Any idea what this test logged for CCOc1ccccc1C(=O)NCC(=O)NCCCc1ccccc1 ?
Key: False

Exercise: State the result this test recorded for COc1ccc(-c2noc3c2-c2nc(-c4ccc(Br)cc4)sc2CC3)cc1 .
Key: False

Exercise: Which outcome was assigned to CCN(Cc1ccc2c(c1)OCCO2)C(=O)CSc1nc(C)nc2sc(C)c(C)c12 in this test?
Key: False

Exercise: What classification did Cn1c(SCC(=O)Nc2ccc(Br)cn2)nnc1C1CC1 end up with in this test?
Key: False

Exercise: Test call, this compound: COc1ccc(S(=O)(=O)Nc2ccccc2C)cc1
Key: False

Exercise: What classification did CCN(CC)S(=O)(=O)c1ccc(C)c(NS(=O)(=O)c2cc(/C=C/C(=O)O)cc(OC)c2OC)c1 end up with in this test?
Key: False

Exercise: Hey, what did the test say about Cc1oc2c(C)c(O)ccc2c(=O)c1-c1ccc2ccccc2n1 ?
Key: False

Exercise: Please state the recorded outcome for this compound: CCNC(=S)NNC(=O)c1csc(C)c1
Key: False

Exercise: Can you look up the reported call for O=C(COc1ccccc1F)N1CCN(S(=O)(=O)/C=C/c2ccccc2)CC1 for me?
Key: False

Exercise: Given COc1ccc(CCNC(=O)c2c[nH]c3ccc(F)cc3c2=O)cc1OC , state the outcome it received in this test.
Key: False

Exercise: Could you please tell me the result logged for CS(=O)(=O)c1ccc(N)c(SSc2cc(S(C)(=O)=O)ccc2N)c1 in this assay?
Key: False

Exercise: Assay outcome for O=C(O)c1[nH]c2ccccc2c1-c1ccccc1 : what was it?
Key: False

Exercise: Field: outcome | Entry: Cc1nn(-c2cccc(Cl)c2)c2c1C(c1cccnc1)C(C#N)=C(N)O2 (centres undefined)
Key: True

Exercise: Hey, what did the test say about CCN(CC)c1cccc(OC2=NS(=O)(=O)c3ccccc32)c1 ?
Key: True

Exercise: Test call, this compound: Cc1ccc(C2CC(=O)Oc3cc(O)ccc32)cc1 (centres undefined)
Key: False

Exercise: For Cc1nonc1OC(C)CNc1ccc([N+](=O)[O-])cc1 (centres undefined) , which call appears in the assay record?
Key: False

Exercise: Tell me the recorded outcome of this test for O=C(CN1CCCCCC1)Nc1ccc(Br)cc1Br .
Key: False

Exercise: # outcome recorded in this test, key = O=c1cc(-c2ccc(Cl)c(Cl)c2)[nH][nH]1
Key: False
